Test system: CAKI-1
Assay: NCI tumour cell line growth inhibition, 48 h
Where a name gives a salt, the structure may show the parent alone. The source made the active and inactive calls. No stated cut-off is given here; in the data, active = GI50 up to about 1.1 µM and inactive = higher.
Your reply should match one of these outcome classes. YES = active, NO = inactive

Name the outcome recorded for Cc1ccc(S(=O)(=O)N2CCSCCSCCSCCSCC2)cc1 in the assay.
NO

Outcome? COc1ccc(CCNC(=O)c2ccccc2C2c3ccc(OCc4ccccc4)cc3Oc3cc(OCc4ccccc4)ccc32)cc1OC
NO

What call does the record list for COc1ccc(/C=C2\CCC(CCN(C)C)(C3=CCCC3)C2=O)cc1 (stereo unspecified) ?
NO

What was the test verdict on CC(C)(C)NC(=O)N1N=C(c2ccccc2)C1c1ccccc1 (stereo unspecified) ?
NO

Call for entry O=C(N/N=C/c1cc(Cl)cc(Cl)c1O)c1ccccc1O :
YES

Please indicate how the test categorized O=C1C(=Cc2c(O)cc(O)cc2O)C(=O)c2ccccc21 .
NO

What outcome does the record of this test show for O=[N+]([O-])c1ccc2nc(O)c(/C=C(\O)c3ccccc3)nc2c1 ?
NO

For Nc1ccc([As](=O)(O)O)cc1 [ARSANILIC ACID] , what call appears in the results of this test?
NO

Please indicate how the test categorized Cc1nc(Cl)c(CBr)c(Cl)n1 .
NO

Outcome? Cc1ccc(NC(=O)c2cc(S(=O)(=O)Nc3n[nH]c(=O)[nH]3)c(SSc3cc(Cl)c(C(=O)Nc4ccc(C)cc4)cc3S(=O)(=O)Nc3n[nH]c(=O)[nH]3)cc2Cl)cc1
NO

Assay result, entry Cc1ccc2c(c1)S(=O)(=O)c1ccc3ccccc3c1N2 — outcome?
NO

Recorded call for O=C1/C(=C\c2ccc(Cl)cc2Cl)Sc2scc(-c3cccc([N+](=O)[O-])c3)[n+]21 ?
NO

What did the test return for CC1=Nc2c(ccc3c2C(=O)c2ccccc2C3=O)NC(c2ccncc2)C1 (stereo unspecified) ?
NO

Per the assay record, what outcome was assigned to CN1C[C@H](C(=O)N[C@]2(C)O[C@@]3(O)[C@@H]4CCCN4C(=O)[C@H](Cc4ccccc4)N3C2=O)C=C2c3cccc4[nH]cc(c34)C[C@H]21 [ERGOTAMINE TARTRATE] ?
NO

Outcome logged for COc1ccc(-c2cc(=O)c3cc(C)c(C)c(C(=O)O)c3o2)cc1 in this assay:
NO

What call does the record list for O=C1COc2ccc([N+](=O)[O-])cc2C(=O)C1 ?
NO

Record lookup: outcome of this test for O=C1NC(=O)C2(CCc3ccc(N(CCCl)CCCl)cc32)N1 (stereo unspecified) ?
NO

I'd appreciate the recorded outcome for C[C@H]1CCC2C(OC(=O)[C@@H]2CN(C)C)[C@]2(C)C(=O)C=CC12O (stereo partly specified) from this test.
NO

Dear all, I need the recorded test outcome for Cc1ccccc1C(C#N)C(=O)C(=O)Nc1cccc(Cl)c1 (stereo unspecified) , thank you.
NO

Assay outcome for N#C/C(=C1\OC(=N)C(c2ccccc2)C1=O)c1ccccc1 (stereo unspecified) : what was it?
NO

Name the outcome recorded for O=C/C1=C/C2=Cc3ccccc3C=C(/C=C(/C=O)C1)C2 in the assay.
NO

###

Tested on: A498
Assay: NCI tumour cell line growth inhibition, 48 h
Structures can show the parent of a compound that is named as a salt. Activity calls are given as the source filed them. No stated cut-off is given here; in the data, active = GI50 up to about 1.1 µM and inactive = higher.
Field 'call' accepts 1.0 (active), 0.0 (inactive)

Called result for CC(O)(Cc1ccccc1C#N)Cc1ccccc1C#N
0.0

Identify the outcome logged in this assay for the compound shown: O=c1cc(-c2ccccc2)oc2cc(Oc3nnnn3-c3ccccc3)ccc12
0.0

Call for entry CCNc1ncnc2c1nnn2CC :
0.0

What call does the record list for CCn1c2nc(=O)n(CCCCCCCCSC(c3ccccc3)(c3ccccc3)c3ccccc3)c(=O)c-2nc2ccccc21 ?
0.0

What did the test return for CN(/N=C\c1ccc2ccccc2c1)C1=NCCCCN1 ?
0.0

Dear all, I need the recorded test outcome for CCOC(=O)C(=CNC(Cc1c[nH]c2ccccc12)C(=O)OC)C(=O)OCC (centres undefined) , thank you.
0.0

# outcome recorded in this test, key = C#CCOc1c(C(=O)OCC)c(=O)n(C)c2ccccc12
0.0

Answer briefly: the call reported for CCN(CC)c1c(C)nnn1C1OC(COC(C)=O)C(OC(C)=O)C(OC(C)=O)C1OC(C)=O (centres undefined) in this assay.
0.0

Please indicate how the test categorized Cc1ccc2c(O)cc(-c3csc4ccccc34)nc2n1 .
1.0

# outcome recorded in this test, key = Clc1cc2nnn(C3CCCO3)c2cc1Cl (centres undefined)
0.0

For OCCN1CN(c2nc(N3CN(CCO)C3)nc(N3CN(CCO)C3)n2)C1 , what call appears in the results of this test?
0.0

Lab log entry: CN(C)CC1CCC(CN(C)C)C1=O (centres undefined) — outcome as called in the assay?
0.0

Look up the recorded call for O=C1/C(=C/c2ccc(Br)s2)NC(=S)N1CN1CCOCC1 in this test.
0.0

How was NCCCCNCCCN [SPERMIDINE TRIHYDROCHLORIDE] classified in this test?
0.0

Any idea what this test logged for CN1CCc2cc3c4cc2C1Cc1ccc(cc1)Oc1cc(ccc1O)CC1c2c(cc(O)c(c2O4)O3)CCN1C (centres undefined) ?
0.0

Kindly provide the recorded test outcome for the following compound: O=c1[nH]c(=O)n(CCOc2ccc(Cl)cc2)cc1Nc1ccccc1
0.0

// return assay outcome for NC(=O)CC(N)C(N)=O (centres undefined)
0.0

Short answer needed: outcome of this test for COC1CC(O)C(OC(=O)c2ccccc2)C(C)O1 (centres undefined) ?
0.0

How did this test come out for [O-][n+]1nc(N2CCOCC2)nc2ccccc21 ?
0.0

How was COc1ccc(CCNC(=O)c2ccccc2C2c3ccc(OCc4ccccc4)cc3Oc3cc(OCc4ccccc4)ccc32)cc1OC classified in this test?
0.0

Any idea what this test logged for COc1cc(CCCOC(=O)/C=C/c2ccc(O)c(O)c2)cc(O)c1O ?
0.0

Which outcome was entered for the compound CCOP(=O)(OCC)/C(=C/c1cccs1)CC(C)=O in this test?
0.0

# outcome recorded in this test, key = N#CC(=C1CCN(CCCC(=O)c2ccc(F)cc2)CC1)c1ccccc1
0.0

What call does the record list for COC1C=COC2(C)Oc3c(C)c(O)c4c(O)c(c(/C=N/N5CCN(N)CC5)c(O)c4c3C2=O)NC(=O)C(C)=CC=CC(C)C(O)C(C)C(O)C(C)C(OC(C)=O)C1C (centres undefined) ?
0.0

Record request — test call for Clc1cccc(N2CCN(CCN3CCc4c([nH]c5ccccc45)C3c3cccnc3)CC2)c1 (centres undefined)
0.0

# outcome recorded in this test, key = CN(CC1(CO)CCC1)c1cc(Cl)nc(N)n1
0.0

// param item: CC(C)(C)OC(=O)C1C(=O)NC(=O)CC1CC(OCc1ccccc1)C(OCc1ccccc1)C(COCc1ccccc1)OCc1ccccc1 (centres undefined) ; yields the recorded call
0.0

Recorded test call requested for CC(=O)N1C(=O)CC2(N=C(C)CC2=O)c2ccccc21 (centres undefined)
0.0

# outcome recorded in this test, key = O=C(O)C1C(C(=O)O)C(C(=O)O)C1C(=O)O (centres undefined)
0.0
